# key: entry, value: melting point

Consider the following illustrative entries.
                                smiles_code         result
0  COC(=O)c1cc(NC(=O)N2CCN(c3ncnc4cc(OC)c(OC)cc34)CC2)cc(C(=O)OC)c1  252 to 253 °C
1  COc1cc2ncnc(N3CCN(C(=O)Nc4cccc5ccccc45)CC3)c2cc1OC  254 to 256 °C
2  COc1cc2ncnc(N3CCN(C(=S)Nc4ccc(Oc5ccccc5)cc4)CC3)c2cc1OC  242 to 243 °C
3  COc1cc2ncnc(N3CCN(C(=O)Nc4ccncc4)CC3)c2cc1OC  141 to 143 °C
4  CCCCOc1ccc(NC(=O)N2CCN(c3ncnc4cc(OC)c(OC)cc34)CC2)cc1  213 to 214 °C

Respond only with melting point recorded for COc1cc2ncnc(N3CCN(C(=S)Nc4cccc(NC(C)=O)c4)CC3)c2cc1OC
207 to 208 °C

// Input: Cc1ccc2c(N3CCN(C(=S)NCc4cccnc4)CC3)ncnc2c1.Cl.Cl . Output its melting point only.
180 to 183 °C

For COc1cc2ncnc(N3CCN(C(=S)Nc4cccc(C)c4)CC3)c2cc1OC , write its melting point.
199 to 201 °C

* * *

The reader will find reported melting point values listed item by item below.

Some molecules with known melting point results, for comparison:
In [3]: df
Out[3]:
                                   molecule         result
0  O=C(Nc1ccc(Oc2ccccc2)cc1)N1CCN(c2cc(C(F)(F)F)nc3ccccc23)CC1 [Compound 397]  203 to 204 °C
1  COc1cc2ncnc(N3CCN(C(=O)Nc4cccc(C#N)c4)CC3)c2cc1OC [Compound 84]  240 to 244 °C
2  COc1cc2ncnc(N3CCN(C(=S)NC(=O)C=Cc4ccccc4)CC3)c2cc1OC [Compound 143]  184 to 186 °C
3  O=C(Nc1ccc(Oc2ccccc2)cc1)N1CCN(c2nncc3ccccc23)CC1 [Compound 414]  202 to 203 °C
4  COc1cc2ncnc(N3CCN(C(=O)Nc4ccc(F)c([N+](=O)[O-])c4)CC3)c2cc1OC [Compound 81]  243 to 245 °C
5  COc1cc2ncnc(N3CCN(C(=S)NCc4ccc(C)cc4)CC3)c2cc1OC [Compound 147]  202 to 204 °C

Determine from records and report melting point for COc1cc2ncnc(N3CCN(C(=O)NCCc4cccs4)CC3)c2cc1OC [Compound 96]
184 to 185 °C

Specify melting point for COc1cc2ncnc(N3CCN(C(=S)NCC(c4ccccc4)c4ccccc4)CC3)c2cc1OC [Compound 11] and stop.
93 to 94 °C

Return reported melting point. Input molecule: COc1cc2c(N3CCN(C(=S)NCc4ccccc4)CC3)ncnc2cc1OC(C)C [Compound 341]
174 to 175 °C

Identify measured melting point corresponding to O=C(Nc1ccc(Oc2ccccc2)cc1)N1CCN(c2ncnc3cc4ccccc4cc23)CC1 [Compound 363]
105 to 108 °C

Write down melting point measured for item COc1ccc(OC)c(NC(=O)N2CCN(c3ncnc4cc(OC)c(OC)cc34)CC2)c1 [Compound 65]
215 to 217 °C

* * *

Entries and their melting point

Some entries whose results are on file:
>>> df
                                   compound         result
0  COc1cc2ncnc(N3CCN(C(=O)Nc4cccnc4)CC3)c2cc1OC [Compound 265]  208 to 209 °C
1  COc1cc2ncnc(N3C[C@@H](C)N(C(=S)NCc4ccccc4)[C@@H](C)C3)c2cc1OC [Compound 433]  165 to 166 °C
2  CCOC(=O)c1cnc2cc(OC)c(OC)cc2c1N1CCN(C(=S)NCc2cccnc2)CC1 [Compound 410]    92 to 94 °C
3  COc1cc2ncnc(N3CCN(C(=O)NCc4ccc(N(C)C)cc4)CC3)c2cc1OC [Compound 223]  188 to 190 °C

Given the compound COc1cc2c(N3CCN(C(=O)Nc4ccc(Oc5ccccc5)cc4)CC3)ncnc2c(OC)c1OC [Compound 108] , write its reported melting point.
83 to 84 °C

Identify measured melting point associated with COc1cc2ncnc(N3CCN(C(=O)Nc4c(Cl)cccc4Cl)CC3)c2cc1OC [Compound 52]
202 to 207 °C

Return melting point (reported value) for this compound: CCCOc1ccc(NC(=O)N2CCN(c3ncnc4cc(OC)c(OC)cc34)CC2)cc1 [Compound 201]
218 to 220 °C

Read the entry COc1ccc2c(N3CCN(C(=S)NCc4cccnc4)CC3)ncnc2c1OC.Cl and write its reported melting point.
208 to 209 °C

Give me measured melting point, please, for this compound: O=C(Nc1ccc(Oc2ccccc2)cc1)N1CCN(c2ncnc3ccc([N+](=O)[O-])cc23)CC1 [Compound 311]
170 to 171 °C
